Biological target: T1, human LRP5 domains E3-E4 (E644-Q1263 of SEQ ID NO: 42) (human, UniProt O75197 644-1263)
T1 construct: Soluble fragment made in-house; It was biotinylated for phage sorting; also called LRP5-E3/E4; LRP5E3/E4
T1 sequence: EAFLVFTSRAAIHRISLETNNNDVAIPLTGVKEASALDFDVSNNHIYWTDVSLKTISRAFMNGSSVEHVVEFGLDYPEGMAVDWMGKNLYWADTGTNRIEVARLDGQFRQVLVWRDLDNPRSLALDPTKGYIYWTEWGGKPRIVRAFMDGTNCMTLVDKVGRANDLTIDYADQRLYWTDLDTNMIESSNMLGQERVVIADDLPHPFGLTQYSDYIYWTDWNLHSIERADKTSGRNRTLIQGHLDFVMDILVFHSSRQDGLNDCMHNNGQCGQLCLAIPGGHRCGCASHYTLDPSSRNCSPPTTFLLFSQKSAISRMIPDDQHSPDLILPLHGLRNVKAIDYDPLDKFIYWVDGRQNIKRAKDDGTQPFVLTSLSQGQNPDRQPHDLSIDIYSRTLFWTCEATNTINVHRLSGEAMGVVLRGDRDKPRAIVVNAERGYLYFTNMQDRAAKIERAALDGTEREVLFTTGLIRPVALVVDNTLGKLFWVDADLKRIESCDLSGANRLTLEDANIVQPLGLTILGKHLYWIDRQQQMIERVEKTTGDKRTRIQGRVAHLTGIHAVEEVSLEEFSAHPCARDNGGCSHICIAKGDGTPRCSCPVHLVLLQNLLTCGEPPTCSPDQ
Experiment: SPR, BIAcore T100, IgG captured by anti-human Fc, LRP5E3/E4 as analyte, 25 C
observed-property: kon (M⁻¹ s⁻¹)
# output: bare number, implied unit M⁻¹ s⁻¹

Examples from the recorded data:
>  <binder>
YW629.42 (antibody, human IgG1, V domains shown, also called P6C.42) VH: EVQLVESGGGLVQPGGSLRLSCAASGFTFSSYAMSWVRQAPGKGLEWVGAISSSGSSTYYADSVKGRFTISRDNSKNTLYLQMNSLRAEDTAVYYCARYYRYAPYRSLGMDVWGQGTLVTVSS VL: DIQMTQSPSSLSASVGDRVTITCRASQGISSYLAWYQQKPGKAPKLLIYAASSLQSGVPSRFSGSGSGTDFTLTISSLQPEDFATYYCQQYYSYPFTFGQGTKVEIKR

>  <unit-spec>
M⁻¹ s⁻¹

>  <kon>
22600

$$$$
>  <binder>
YW629.51.80 (antibody, human IgG1, V domains shown, also called P6C.51.80) VH: EVQLVESGGGLVQPGGSLRLSCAASGFTFSSYAMHWVRQAPGKGLEWVSRISSNGGSTYYADSVKGRFTISRDNSKNTLYLQMNSLRAEDTAVYYCARWIPQSYPFASYKSGFDYWGQGTLVTVSS VL: DIQMTQSPSSLSASVGDRVTITCRASQAIYSYLAWYQQKPGKAPKLLIYDASSLESGVPSRFSGSGSGTDFTLTISSLQPEDFATYYCQQYYSYPFTFGQGTKVEIKR

>  <unit-spec>
M⁻¹ s⁻¹

>  <kon>
387000

$$$$
>  <binder>
YW629.51.77 (antibody, human IgG1, V domains shown, also called P6C.51.77) VH: EVQLVESGGGLVQPGGSLRLSCAASGFTFSSYAMHWVRQAPGKGLEWVSRISSNGGSTYYADSVKGRFTISRDNSKNTLYLQMNSLRAEDTAVYYCARWIPQSYPFASYKSGFDYWGQGTLVTVSS VL: DIQMTQSPSSLSASVGDRVTITCRASQVIYGYLAWYQQKPGKAPKLLIYDASTRESGVPSRFSGSGSGTDFTLTISSLQPEDFATYYCQQYYSYPFTFGQGTKVEIKR

>  <unit-spec>
M⁻¹ s⁻¹

>  <kon>
376000

$$$$
>  <binder>
YW629.51.13 (antibody, human IgG1, V domains shown, also called P6C.51.13) VH: EVQLVESGGGLVQPGGSLRLSCAASGFTFSSYAMHWVRQAPGKGLEWVSRISSNGGSTYYADSVKGRFTISRDNSKNTLYLQMNSLRAEDTAVYYCARWIPQSYPFRSYKSGFDYWGQGTLVTVSS VL: DIQMTQSPSSLSASVGDRVTITCRASQGISSYLAWYQQKPGKAPKLLIYDASSLESGVPSRFSGSGSGTDFTLTISSLQPEDFATYYCQQYYSYPFTFGQGTKVEIKR

>  <unit-spec>
M⁻¹ s⁻¹

>  <kon>
327000

$$$$

Quick note, kon for YW629.51.78 (antibody, human IgG1, V domains shown, also called P6C.51.78) VH: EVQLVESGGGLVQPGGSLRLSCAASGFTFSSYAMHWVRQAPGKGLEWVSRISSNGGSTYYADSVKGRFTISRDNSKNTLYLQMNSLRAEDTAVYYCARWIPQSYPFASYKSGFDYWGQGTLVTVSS VL: DIQMTQSPSSLSASVGDRVTITCRASQGIFYYLAWYQQKPGKAPKLLIYDASTLESGVPSRFSGSGSGTDFTLTISSLQPEDFATYYCQQYYSYPFTFGQGTKVEIKR landed at 378000

Quick note, kon for YW629.42.65 (antibody, human IgG1, V domains shown, also called P6C.42.65) VH: EVQLVESGGGLVQPGGSLRLSCAASGFTFSSYAMSWVRQAPGKGLEWVGGISSPGSSTYYADSVKGRFTISRDNSKNTLYLQMNSLRAEDTAVYYCARYYRYAPYRSLGMDVWGQGTLVTVSS VL: DIQMTQSPSSLSASVGDRVTITCRASQGISSYLAWYQQKPGKAPKLLIYAASSLQSGVPSRFSGSGSGTDFTLTISSLQPEDFATYYCQQYYLYPFTFGQGTKVEIKR landed at 37900
